- tested_target: human AChE (Homo sapiens, UniProt P22303)
- Construct: purchased Sigma-Aldrich
- Sequence (P22303 32-614): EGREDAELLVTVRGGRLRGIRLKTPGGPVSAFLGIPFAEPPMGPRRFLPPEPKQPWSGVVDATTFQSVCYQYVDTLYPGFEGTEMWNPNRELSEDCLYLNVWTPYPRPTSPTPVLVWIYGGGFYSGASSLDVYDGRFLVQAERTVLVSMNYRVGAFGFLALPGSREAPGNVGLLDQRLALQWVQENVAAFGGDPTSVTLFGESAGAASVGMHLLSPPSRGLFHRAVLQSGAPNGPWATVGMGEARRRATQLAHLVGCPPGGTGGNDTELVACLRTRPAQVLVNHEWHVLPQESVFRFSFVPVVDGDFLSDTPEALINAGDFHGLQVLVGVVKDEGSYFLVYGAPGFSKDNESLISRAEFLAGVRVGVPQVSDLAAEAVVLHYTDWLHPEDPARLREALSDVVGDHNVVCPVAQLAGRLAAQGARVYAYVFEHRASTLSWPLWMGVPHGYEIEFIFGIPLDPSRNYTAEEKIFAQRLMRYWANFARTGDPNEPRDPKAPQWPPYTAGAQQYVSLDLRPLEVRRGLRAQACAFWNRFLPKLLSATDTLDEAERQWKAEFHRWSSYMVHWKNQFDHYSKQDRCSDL
- experiment_summary: biochemical
- test_context: human recombinant AChE, 10 µM, mean of triplicate; na = no activity observed at 10 µM; read-out: % Inhibition at 10 µM
test_readout: inhibition at 10 µM (%)

| compound | unit_label | measured_number |
| --- | --- | --- |
| O=C(/C=C/c1ccccc1Br)c1ccccc1O [Compound 7, 2-Bromo-2′-hydroxychalcone] | % | 38 |
| COc1ccc(/C=C/C(=O)c2c(O)cc(OC)cc2OC)cc1 [Compound 12, 2′-Hydroxy-4,4′,6′-trimethoxychalcone] | % | 7 |
| COc1cc(O)c(C(=O)/C=C/c2ccc(Br)cc2)c(OC)c1 | % | 30 |
| COc1cc(O)c(C(=O)/C=C/c2ccc(N(C)C)cc2)c(OC)c1 | % | 5 |

---

- tested_target: human AChE (Homo sapiens)
- experiment_summary: biochemical
- test_context: human recombinant AChE, mean ± SEM
- Experimental: AChE and BChE inhibition studies were performed in 96 well plates by the method of Ellman, et al.. […] The mixture was preincubated for 20 min at 37 °C before addition of 50 μL (0.120 mM) of the substrate, acetylthiocholine (ATC) iodide or butyrylthiocholine (BTC) iodide (depending on the enzyme). […] The percentage of inhibition was calculated using the expression: (E–S)/E × 100 where E is the activity of the enzyme without test compound and S is the activity of the enzyme with test compound. […]
test_readout: IC50 (µM)

| compound | measured_number |
| --- | --- |
| COc1cc(O)c(C(=O)/C=C/c2ccccc2Br)c(OC)c1 | 85 |
| CN(C)c1ccc(/C=C/C(=O)c2ccccc2O)cc1 [Compound 5, 2′-Hydroxy-4-(dimethylamino)chalcone] | 266 |
| O=C(/C=C/c1ccccc1Br)c1ccccc1O [Compound 7, 2-Bromo-2′-hydroxychalcone] | 55 |
| COc1cc(O)c(C(=O)/C=C/c2ccc(Br)cc2)c(OC)c1 | 41 |
| COc1cc(O)c(C(=O)/C=C/c2cc(Cl)cc(Cl)c2O)c(OC)c1 | 73 |
| COc1cc(O)c(C(=O)/C=C/c2ccc(C)cc2)c(OC)c1 | 354 |

---

pKi: −log10 of the molar value.
Hi! I'm sharing some pKi results obtained with UniProtKB P22303.

| compound | tested_target | pKi |
| --- | --- | --- |
| COc1cc(O)c(C(=O)/C=C/c2ccc(Br)cc2)c(OC)c1 [Compound 10] | UniProtKB P22303 | 4.51 |
| COc1cc(O)c(C(=O)/C=C/c2cc(Cl)cc(Cl)c2O)c(OC)c1 [Compound 14] | UniProtKB P22303 | 4.25 |
| COc1cc(O)c(C(=O)/C=C/c2ccccc2Br)c(OC)c1 [Compound 13] | UniProtKB P22303 | 3.95 |
| O=C(/C=C/c1ccccc1Br)c1ccccc1O [Compound 7, 2-Bromo-2′-hydroxychalcone] | UniProtKB P22303 | 4.40 |

---

// reported IC50 per item
- tested_target: equine BChE (Equus caballus, UniProt P81908)
- Sequence (P81908 whole entry): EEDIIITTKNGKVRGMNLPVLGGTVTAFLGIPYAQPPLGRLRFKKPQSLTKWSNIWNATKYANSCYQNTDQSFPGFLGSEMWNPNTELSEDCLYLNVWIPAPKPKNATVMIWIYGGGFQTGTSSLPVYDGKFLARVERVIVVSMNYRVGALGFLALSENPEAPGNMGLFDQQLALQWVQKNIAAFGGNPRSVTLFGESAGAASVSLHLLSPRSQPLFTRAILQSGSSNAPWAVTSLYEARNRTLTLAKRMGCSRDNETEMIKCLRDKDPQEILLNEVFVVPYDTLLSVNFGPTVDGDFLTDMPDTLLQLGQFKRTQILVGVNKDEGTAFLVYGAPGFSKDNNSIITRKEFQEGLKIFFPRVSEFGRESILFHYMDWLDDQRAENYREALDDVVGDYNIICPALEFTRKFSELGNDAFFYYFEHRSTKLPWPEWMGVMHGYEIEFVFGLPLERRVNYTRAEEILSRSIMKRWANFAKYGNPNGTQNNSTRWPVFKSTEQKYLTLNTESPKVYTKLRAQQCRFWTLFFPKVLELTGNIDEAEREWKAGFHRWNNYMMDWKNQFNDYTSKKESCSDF

| compound | tested_target | IC50, µM |
| --- | --- | --- |
| COc1cc(O)c(C(=O)/C=C/c2ccc(Br)cc2)c(OC)c1 | equine BChE (Equus caballus, UniProt P81908) | 59 |
| COc1cc(O)c(C(=O)/C=C/c2cc(Cl)cc(Cl)c2O)c(OC)c1 | equine BChE (Equus caballus, UniProt P81908) | 81 |
| COc1cc(O)c(C(=O)/C=C/c2ccccc2Br)c(OC)c1 | equine BChE (Equus caballus, UniProt P81908) | 71 |
| O=C(/C=C/c1ccccc1Br)c1ccccc1O [Compound 7, 2-Bromo-2′-hydroxychalcone] | equine BChE (Equus caballus, UniProt P81908) | 108 |

---

- tested_target: human AChE (Homo sapiens, UniProt P22303)
- Construct: purchased Sigma-Aldrich
- experiment_summary: biochemical
- test_context: human recombinant AChE, 10 µM, mean of triplicate; na = no activity observed at 10 µM; read-out: % Inhibition at 10 µM

| compound | tested_target | unit_label | inhibition at 10 µM |
| --- | --- | --- | --- |
| CN(C)c1ccc(/C=C/C(=O)c2ccccc2O)cc1 [Compound 5, 2′-Hydroxy-4-(dimethylamino)chalcone] | human AChE (Homo sapiens, UniProt P22303) | % | 28 |
| COc1cc(O)c(C(=O)/C=C/c2cc(Cl)cc(Cl)c2O)c(OC)c1 [Compound 14] | human AChE (Homo sapiens, UniProt P22303) | % | 51 |
| COc1cc(O)c(C(=O)/C=C/c2ccccc2Br)c(OC)c1 [Compound 13] | human AChE (Homo sapiens, UniProt P22303) | % | 23 |
| COc1cc(O)c(C(=O)/C=C/c2ccc(C)cc2)c(OC)c1 [Compound 9] | human AChE (Homo sapiens, UniProt P22303) | % | 23 |
